Tested on: Caco-2 cells
ASSAY_SETUP: human, Caco-2, 2 h, 3 μM, pH 7.4
ASSAY_ENDPOINT: CACO2 (A-B) (nm/s)

[2H]C([2H])([2H])NC(=O)c1nnc(NC(=O)C2CC2)cc1Nc1cccc(-c2cnc(F)cn2)c1OC ... 513

I = [2H]C([2H])([2H])NC(=O)c1nnc(NC(=O)C2CC2)cc1Nc1cccc(-c2ncns2)c1OC
II = [2H]C([2H])([2H])NC(=O)c1nnc(NC(=O)C2CC2)cc1Nc1cccc(-c2cnc([N+](=O)[O-])cn2)c1OC
III = [2H]C([2H])([2H])NC(=O)c1nnc(NC(=O)C2CC2)cc1Nc1cccc(-c2cnc(C3CC3)cn2)c1OC
List from greatest to least CACO2 (A-B). Reply: labels, ordered per the request. I, III, II
(I: 499 nm/s, III: 270 nm/s, II: 16 nm/s)

I = [2H]C([2H])([2H])NC(=O)c1nnc(NC(=O)C2CC2)cc1Nc1cccc(-c2cc(C)ncn2)c1OC
II = [2H]C([2H])([2H])NC(=O)c1nnc(NC(=O)C2CC2)cc1Nc1cccc(-c2nc(C)ns2)c1OC
Between I and II , whose recorded CACO2 (A-B) is greater? Please reply using the label of the selected record. I

###

Tested on: IFNα-induced pSTAT5 (Tyk2-mediated signal transduction)
TEST_METHOD_NOTES: IFNα-induced STAT phosphorylation in human whole blood
Assay type: cell-based
ASSAY_SETUP: 1 h incubation with compound, 1000 U/mL IFNα A/D for 15 min, CD3 positive population, read-out: Human Whole blood IFNa pSTAT5 IC50
Description: IFNα-Induced STAT Phosphorylation in Human Whole Blood After an hour long incubation with compound, human whole blood (drawn with ACD-A as anticoagulant) was stimulated with 1000 U/mL recombinant human IFNα A/D (R&D Systems 11200-2) for 15 min. The stimulation was stopped by adding Fix/Lyse buffer (BD 558049). […] The amount of pSTAT5 expression was quantitated by median fluorescence intensity after gating on the CD3 positive population.
ASSAY_ENDPOINT: IC50 (nM)

[2H]C([2H])([2H])NC(=O)c1nnc(NC(=O)C2CC2)cc1Nc1cccc(-c2cnn(C3CC3)c2)c1OC ... 425

1 = [2H]C([2H])([2H])NC(=O)c1nnc(NC(=O)C2CC2)cc1Nc1cccc(-c2noc(CF)n2)c1OC
2 = [2H]C([2H])([2H])NC(=O)c1nnc(NC(=O)C2CC2)cc1Nc1cc(F)cc(-c2cnc(C3(O)CCC3)cn2)c1OC
3 = [2H]C([2H])([2H])NC(=O)c1nnc(NC(=O)C2CC2)cc1Nc1nccc(-c2cnn(C(F)F)c2)c1OC
4 = [2H]C([2H])([2H])NC(=O)c1nnc(NC(=O)C2CC2)cc1Nc1cccc(-c2ccns2)c1OC
5 = [2H]C([2H])([2H])NC(=O)c1nnc(NC(=O)C2CC2)cc1Nc1nccc(-c2cn(C)nc2C)c1OC
List from greatest to least IC50. Reply: labels, ordered per the request. 4, 5, 3, 2, 1
(4: 474 nM, 5: 289 nM, 3: 193 nM, 2: 99 nM, 1: 34 nM)

I = [2H]C([2H])([2H])NC(=O)c1nnc(NC(=O)C2CC2)cc1Nc1cc(F)cc(-c2cnn(C)c2)c1OC
II = [2H]C([2H])([2H])NC(=O)c1nnc(NC(=O)C2CC2)cc1Nc1cccc(-c2noc(CCF)n2)c1OC
Min IC50? I | II Please reply using the label of the selected record. II
(II: 91 nM, I: 177 nM)

###

TEST_METHOD_NOTES: in vitro
ASSAY_SETUP: human, Caco-2, pH 7.4
ASSAY_ENDPOINT: efflux ratio at 2 h, 3 μM

These solved cases illustrate the format of a correct answer.
[2H]C([2H])([2H])NC(=O)c1nnc(NC(=O)C2CC2)cc1Nc1nccc(-c2cn(C)nc2C)c1OC ... 1
[2H]C([2H])([2H])NC(=O)c1nnc(NC(=O)C2CC2)cc1Nc1cccc(-c2cnc(C)cn2)c1OC ... 1.4
[2H]C([2H])([2H])NC(=O)c1nnc(NC(=O)C2CC2)cc1Nc1nccc(-c2ncns2)c1OC ... 0.4
[2H]C([2H])([2H])NC(=O)c1nnc(NC(=O)C2CC2)cc1Nc1cccc(-c2ccc(C(F)F)cn2)c1OC ... 0.6
[2H]C([2H])([2H])NC(=O)c1nnc(NC(=O)C2CC2)cc1Nc1nccc(-c2nccs2)c1OC ... 0.4
[2H]C([2H])([2H])NC(=O)c1nnc(NC(=O)C2CC2)cc1Nc1cc(C)cc(-c2cnc(C3(O)CCC3)cn2)c1OC ... 0.9
[2H]C([2H])([2H])NC(=O)c1nnc(NC(=O)C2CC2)cc1Nc1cccc(-c2nc(C)oc2C)c1OC ... 0.7
[2H]C([2H])([2H])NC(=O)c1nnc(NC(=O)C2CC2)cc1Nc1cccc(-c2csc(C)n2)c1OC ... 0.7
[2H]C([2H])([2H])NC(=O)c1nnc(NC(=O)C2CC2)cc1Nc1nccc(-c2cnsc2)c1OC ... 0.5
[2H]C([2H])([2H])NC(=O)c1nnc(NC(=O)C2CC2)cc1Nc1cccc(-c2cnc(C#N)cn2)c1OC ... 0.5

1 = [2H]C([2H])([2H])NC(=O)c1nnc(NC(=O)C2CC2)cc1Nc1cccc(-c2noc(CF)n2)c1OC
2 = [2H]C([2H])([2H])NC(=O)c1nnc(NC(=O)C2CC2)cc1Nc1cccc(-c2ccc(C(C)(C)C#N)cn2)c1OC
3 = [2H]C([2H])([2H])NC(=O)c1nnc(NC(=O)C2CC2)cc1Nc1nccc(-c2nc(C)ns2)c1OC
List from greatest to least efflux ratio at 2 h, 3 μM. Reply: labels, ordered per the request. 2, 1, 3
(2: 1.2, 1: 0.5, 3: 0.3)

###

Tested on: IFNα-induced pSTAT5 (Tyk2-mediated signal transduction)
TEST_METHOD_NOTES: IFNα-induced STAT phosphorylation in human whole blood
Assay type: cell-based
ASSAY_SETUP: 1 h incubation with compound, 1000 U/mL IFNα A/D for 15 min, CD3 positive population, read-out: Human Whole blood IFNa pSTAT5 IC50
Protocol: IFNα-Induced STAT Phosphorylation in Human Whole Blood After an hour long incubation with compound, human whole blood (drawn with ACD-A as anticoagulant) was stimulated with 1000 U/mL recombinant human IFNα A/D (R&D Systems 11200-2) for 15 min. The stimulation was stopped by adding Fix/Lyse buffer (BD 558049). […] The amount of pSTAT5 expression was quantitated by median fluorescence intensity after gating on the CD3 positive population.
ASSAY_ENDPOINT: IC50 (µM)

These solved cases illustrate the format of a correct answer.
[2H]C([2H])([2H])NC(=O)c1nnc(NC(=O)C2CC2)cc1Nc1nccc(-c2nc(C)ns2)c1OC ... 0.159
[2H]C([2H])([2H])NC(=O)c1nnc(NC(=O)[C@@H]2C[C@H]2C)cc1Nc1nccc(-c2nc(C)ns2)c1OC ... 0.179
[2H]C([2H])([2H])NC(=O)c1nnc(NC(=O)C2CC2)cc1Nc1cccc(-c2cnsc2)c1OC ... 0.225

I = [2H]C([2H])([2H])NC(=O)c1nnc(NC(=O)C2C[C@H]2C)cc1Nc1cccc(-c2nnn(C)n2)c1OC (mixture of isomers)
II = CNC(=O)c1nnc(NC(=O)C2CC2)cc1Nc1cccc(-c2cnc(C3CC3)cn2)c1OC
Between I and II , whose recorded IC50 is greater? Please reply using the label of the selected record. I

###

TEST_METHOD_NOTES: in vitro
ASSAY_SETUP: human, Caco-2, pH 7.4
ASSAY_ENDPOINT: efflux ratio at 2 h, 3 μM

[2H]C([2H])([2H])NC(=O)c1nnc(NC(=O)C2CC2)cc1Nc1nccc(-c2cnn(C(F)F)c2)c1OC ... 0.4
[2H]C([2H])([2H])NC(=O)c1nnc(NC(=O)C2CC2)cc1Nc1cccc(-c2cocn2)c1OC ... 0.5
[2H]C([2H])([2H])NC(=O)c1nnc(NC(=O)C2CC2)cc1Nc1nccc(-c2cnn(C3CC3)c2)c1OC ... 0.5
[2H]C([2H])([2H])NC(=O)c1nnc(NC(=O)C2CC2)cc1Nc1cccc(-c2noc(CC)n2)c1OC ... 0.8
[2H]C([2H])([2H])NC(=O)c1nnc(NC(=O)C2CC2)cc1Nc1cccc(-c2noc(C(F)F)n2)c1OC ... 0.6
